Exercise: for every item that follows, state its recorded cAMP Rel EC50 (1% HSA).
molecular target: human glucagon receptor (human) (UniProt P47871); experiment: cell-based or functional assay
Sequence (P47871 26-477): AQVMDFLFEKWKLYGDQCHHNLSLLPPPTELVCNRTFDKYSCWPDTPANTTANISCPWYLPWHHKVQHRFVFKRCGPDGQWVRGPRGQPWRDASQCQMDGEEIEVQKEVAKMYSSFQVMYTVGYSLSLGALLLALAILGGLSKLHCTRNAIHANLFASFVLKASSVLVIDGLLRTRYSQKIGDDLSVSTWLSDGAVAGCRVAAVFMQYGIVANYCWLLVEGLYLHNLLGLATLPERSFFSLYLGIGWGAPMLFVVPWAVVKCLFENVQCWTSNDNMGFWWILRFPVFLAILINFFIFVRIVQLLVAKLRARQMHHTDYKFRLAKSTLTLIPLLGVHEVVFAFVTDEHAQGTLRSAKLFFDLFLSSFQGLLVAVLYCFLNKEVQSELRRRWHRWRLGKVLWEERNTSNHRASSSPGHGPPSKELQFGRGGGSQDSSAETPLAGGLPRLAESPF
Starred links: 1 amine or outer side, 2 acyl side, 3 side chain; linkers in the order of their positions; H or OH if unused. Non-standard residues stand in square brackets, D forms with d. Groups on a side chain read outwards from the residue. No end group written: not given here. *: point of attachment. C20 diacid = O=C(O)CCCCCCCCCCCCCCCCCCC(=O)*; C18 diacid = O=C(O)CCCCCCCCCCCCCCCCC(=O)*; γGlu = O=C(O)[C@H](CCC(=O)[*:2])N[*:1]; αMe4Pal = C[C@](N)(Cc1ccncc1)C(=O)O; 4Pal = N[C@@H](Cc1ccncc1)C(=O)O; αMeL = CC(C)C[C@](C)(N)C(=O)O; Orn = NCCC[C@H](N)C(=O)O; Dab = NCC[C@H](N)C(=O)O; AEEA = NCCOCCOCC(=O)O; Aib = CC(C)(N)C(=O)O
Respond numerically; units are nM and should not be typed.

Query string: Given Y[Aib]QGTFTSD[4Pal]S[Dab][αMeL]LD[Orn]K([γGlu-γGlu-C18 diacid])AQ[Aib]AFIE[αMe4Pal]LLAGGPSSGAPPPEGSEE-NH2 [Example 1054] , state its recorded cAMP Rel EC50 (1% HSA).
Result string: 1630

Query string: If you can, please state the reported cAMP Rel EC50 (1% HSA) value of YXQGTXTSDXXIXLDXKAAXEFIEXLVEGGPSSGAPPPSGS (synthetic construct; SITE 2: note = 2-Aminoisobutyric Acid; SITE 6: note = alpha-methyl-2-fluoro-L-phenylalanine; SITE 10: note = 3-(4-Pyridyl)-L-alanine; SITE 11: note = alpha-methyl-L-serine; SITE 13: note = alpha-methyl-leucine; SITE 16: note = L-ornithine; SITE 17: note = Lysine is chemically mo) [Example 693] .
Result string: 304

Query string: Can you share its cAMP Rel EC50 (1% HSA)? I mean this binder: Y[Aib]QGTFTSDYSI[αMeL]LD[Orn]QAAK([AEEA-AEEA-γGlu-C20 diacid])QFVEWLLA[Aib]GPSSGEPPPSEG-NH2 [Example 328]
Result string: 2040

Query string: Need cAMP Rel EC50 (1% HSA) of YXQGTFTSDFSQXLDKKAQXAFIEXLIEXGPSSGAPPPSGS (non-natural residues; acylated Lys C18 diacid; C-term amide; synthetic construct; SITE 2: note = 2-Aminoisobutyric Acid; SITE 13: note = alpha-methyl-leucine; SITE 17: note = Lysine is chemically modified through conjugation of the epsilon-amino group of the Lysine side chain with (2-[2-(2-Amino-ethoxy)-ethoxy]-acetyl)-(gamma-Glu)-CO-(CH2) 16-CO2H; SITE 20: n) [Example 913] , thanks.
Result string: 1140

Query string: Fill blank: measured cAMP Rel EC50 (1% HSA) of the binder YXQGTXTSDXXILLDXKAQXXFIEYLIEGGPSSGEPPPSGTE (synthetic construct; SITE 2: note = 2-Aminoisobutyric Acid; SITE 6: note = alpha-methyl-2-fluoro-L-phenylalanine; SITE 10: note = 3-(4-Pyridyl)-L-alanine; SITE 11: note = alpha-methyl-L-serine; SITE 16: note = L-ornithine; SITE 17: note = Lysine is chemically modified through conjugation of the epsi) [Example 531] is ____.
Result string: 465
